Below, each of the compounds is paired with its reported IC50 value.
Target: HCV1b NS5B polymerase delta 21 (Hepatitis C virus genotype 1b)
Construct: purified HCV1b NS5B polymerase delta 21
Sequence (P26663 2420-2989): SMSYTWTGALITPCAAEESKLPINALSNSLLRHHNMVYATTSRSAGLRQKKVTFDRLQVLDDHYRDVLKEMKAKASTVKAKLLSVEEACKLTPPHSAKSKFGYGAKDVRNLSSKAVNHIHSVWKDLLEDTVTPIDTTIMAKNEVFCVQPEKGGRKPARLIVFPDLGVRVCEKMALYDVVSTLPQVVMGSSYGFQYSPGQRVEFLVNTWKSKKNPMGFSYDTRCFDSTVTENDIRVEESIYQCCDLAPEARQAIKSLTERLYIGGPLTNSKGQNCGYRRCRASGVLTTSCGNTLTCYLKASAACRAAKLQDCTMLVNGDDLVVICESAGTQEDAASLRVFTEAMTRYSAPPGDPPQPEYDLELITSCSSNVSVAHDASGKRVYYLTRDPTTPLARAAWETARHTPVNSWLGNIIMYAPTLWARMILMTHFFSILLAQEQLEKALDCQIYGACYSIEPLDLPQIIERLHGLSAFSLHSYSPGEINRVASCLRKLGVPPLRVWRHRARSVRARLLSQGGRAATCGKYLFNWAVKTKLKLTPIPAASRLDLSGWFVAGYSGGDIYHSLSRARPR
Test: RNA-dependent RNA HCV NS5B (polymerase) assay and IC50 determination
endpoint-name: IC50

compound: CN1CCC(c2cc(-c3ccccc3)sc2C(=O)O)=C(C2CCCC2)C1
assay-result: 3 to 10 µM
--
compound: COc1ccn2nc(-c3ccc(-c4cc(C5=C(C6CCC(C)CC6)CN(C)CC5)c(C(=O)O)s4)cc3)cc2n1 (centres unmarked)
assay-result: < 3 µM
--
compound: CN1CCC(c2cc(-c3ccccc3)sc2C(=O)O)=C(c2ccc(Cl)cc2)C1
assay-result: > 10 µM
--
compound: CC1CCC(C2=C(c3cc(-c4ccc(N)nc4)sc3C(=O)O)CCN(C)C2)CC1 (centres unmarked)
assay-result: < 3 µM
--
compound: CN1CCC(C2CCCCC2)=C(c2cc(-c3ccc(NC(=O)c4cscn4)cc3)sc2C(=O)O)C1
assay-result: < 3 µM
--
compound: CCCCCC1=C(c2cc(-c3ccccc3)sc2C(=O)O)CCN(C)C1
assay-result: 3 to 10 µM
--
compound: Cc1cc(-c2cc(C3=C(C4CCC(C)CC4)CN(C)CC3)c(C(=O)O)s2)ccc1-c1cc2ncccn2n1 (centres unmarked)
assay-result: < 3 µM
--
compound: CN1CCC(C2CCC(F)(F)CC2)=C(c2cc(-c3ccc(NC(=O)c4cscn4)cc3)sc2C(=O)O)C1
assay-result: < 3 µM
--
compound: COc1cc(-c2cc(C3=C(C4CCC(C)CC4)CN(C)CC3)c(C(=O)O)s2)ccc1NC(=O)c1cscn1 (centres unmarked)
assay-result: < 3 µM
--
compound: CN1CCC(c2cc(-c3ccccc3)sc2C(=O)O)=C(C2CCCCCC2)C1
assay-result: < 3 µM
--
compound: CN1CCC(c2cc(C#CC(C)(C)C)sc2C(=O)O)=C(C2CCCCC2)C1
assay-result: < 3 µM
--
compound: CC1CCC(C2=C(c3cc(-c4ccc(NC(=O)c5cscn5)c(Cl)c4)sc3C(=O)O)CCN(C)C2)CC1 (centres unmarked)
assay-result: < 3 µM
--
compound: CC1CCC(C2=C(c3cc(-c4ccc(NC(=O)c5cscn5)cc4)sc3C(=O)O)CN(CC3COC(C)(C)O3)CC2)CC1 (centres unmarked)
assay-result: < 3 µM
--
compound: Cc1cc(-c2cc(C3=C(C4CCC(C)CC4)CCN(Cc4cnn(C)c4)C3)c(C(=O)O)s2)ccc1NC(=O)c1cscn1 (centres unmarked)
assay-result: < 3 µM
